# credit: a melting point compilation (Tetko et al.; mined from patent text by program, amines drawn as free bases though some values may be those of a salt)

Listing of entries alongside the reported melting point.

Before answering, review these 8 worked examples.
compound=C=C(Nc1nc(-c2ccccc2)c(-c2nc3ccccc3c(=O)n2-c2ccc(OC)cc2)s1)c1ccco1 reported_result="262 to 264 °C"
compound="CCCCCCCCCCCCCCCCCCNC(=O)OCC(CN)OC(=O)NC (centres undefined)" reported_result="49 to 50.5 °C"
compound="CCC1N=C(c2ccccc2Cl)c2cc(CCC(=O)N3CCOCC3)sc2-n2c(C)nnc21 (centres undefined)" reported_result="145 to 147 °C"
compound="CCCCCCCCCCCCCCCCN(CC(O)CO)C(C)=O (centres undefined)" reported_result="56 to 58 °C"
compound=O=C(O)CCCc1cc2cc(Cl)ccc2n1S(=O)(=O)c1ccc(N2CCOCC2)nc1 reported_result="78 to 82 °C"
compound=CC(=O)c1ccc(CCCCCCOc2ccc(C(=O)c3cccc(C(=O)O)c3)cc2CCC(=O)O)cc1 reported_result="139 to 141 °C"
compound=Cc1cc2c(cc1-c1c[nH]c(C=O)c1)C(C)(C)CCC2(C)C reported_result="128 to 129 °C"
compound=NS(=O)(=O)c1cc2[nH]c(C(Cl)Cl)nc2cc1Cl reported_result="225 to 227 °C"

Quick note, melting point for CC1Cc2cc3c(cc2C(C=Cc2ccc(N)cc2)=NN1)OCO3 (centres undefined) landed at 159 to 161 °C

Quick note, melting point for CCOP(=O)(OCC)c1nc(N(CC)CC)nc(N(CC)CC)n1 landed at 45 to 46 °C

Quick note, melting point for CCCCc1nc2c(N)nc3ccccc3c2n1CCCCNS(=O)(=O)c1cccc2c(N(C)C)cccc12 landed at 223 to 224 °C

Quick note, melting point for COc1ccc(C(=O)Nc2ccc(COc3ccc4c(c3)CCC(CN(C)C)C4)cc2)cc1 (centres undefined) landed at 155 to 159 °C

Quick note, melting point for CC(C)(C)OC(=O)CC(C#N)c1ccc(Cl)c(Cl)c1 (centres undefined) landed at 67 °C

Quick note, melting point for O=S(=O)(c1ccccc1)n1ccc2cc3c(cc21)OCO3 landed at 142 to 145 °C

Quick note, melting point for O=C(Nc1ccc(F)cc1)N1CCc2cc(S(=O)(=O)N3CCN(c4cccc(Cl)c4)CC3)ccc21 landed at 192 to 194 °C

Quick note, melting point for O=S(=O)(ON=C1c2ccccc2-c2ccccc21)c1ccc(O)cc1 landed at 216 to 217 °C

Quick note, melting point for CCOC(=O)C=C(NNc1c(C)cc(C)c([N+](=O)[O-])c1C)OC landed at 82 to 83 °C

Quick note, melting point for CC(C)c1cccc(C(C)C)c1NC(=O)C(NCc1ccccc1)c1ccccc1 (centres undefined) landed at 134 to 137 °C

Quick note, melting point for CCOc1cccc(N2CCN(CCCCOc3ccc4c(n3)NC(=O)CC4)CC2)c1Cl landed at 110 to 112 °C

----------
measured.quantity: melting point

Before answering, review these 5 worked examples.
smiles_text=CC(C)(C)c1cc(CCc2nnco2)cc(C(C)(C)C)c1O reported_result="100 to 101 °C"
smiles_text=CCOc1ccc(C(=O)NCCN2CCC(Oc3ccc(Cl)c(Cl)c3)CC2)cc1 reported_result="118 to 120 °C"
smiles_text=Nc1cc(Br)cc(Br)c1O reported_result="175 to 176 °C"
smiles_text=COc1cccc(-c2ccc(O)cc2)c1 reported_result="93 to 95 °C"
smiles_text=CC(C)(C)OC(=O)N1CCc2[nH]c3cccc(Br)c3c2CC1 reported_result="223 to 225 °C"

# context switch: different compound, same melting point
Quick note, melting point for COC[C@@H](C)n1cc(Cl)nc(N2CCc3cc(Cl)cc(Cl)c32)c1=O landed at 93 to 95 °C
